Below, each of the compounds is paired with its reported inhibition value.
# testedTarget: Bifunctional dihydrofolate reductase-thymidylate synthase (Toxoplasma gondii)
# Sequence (whole entry): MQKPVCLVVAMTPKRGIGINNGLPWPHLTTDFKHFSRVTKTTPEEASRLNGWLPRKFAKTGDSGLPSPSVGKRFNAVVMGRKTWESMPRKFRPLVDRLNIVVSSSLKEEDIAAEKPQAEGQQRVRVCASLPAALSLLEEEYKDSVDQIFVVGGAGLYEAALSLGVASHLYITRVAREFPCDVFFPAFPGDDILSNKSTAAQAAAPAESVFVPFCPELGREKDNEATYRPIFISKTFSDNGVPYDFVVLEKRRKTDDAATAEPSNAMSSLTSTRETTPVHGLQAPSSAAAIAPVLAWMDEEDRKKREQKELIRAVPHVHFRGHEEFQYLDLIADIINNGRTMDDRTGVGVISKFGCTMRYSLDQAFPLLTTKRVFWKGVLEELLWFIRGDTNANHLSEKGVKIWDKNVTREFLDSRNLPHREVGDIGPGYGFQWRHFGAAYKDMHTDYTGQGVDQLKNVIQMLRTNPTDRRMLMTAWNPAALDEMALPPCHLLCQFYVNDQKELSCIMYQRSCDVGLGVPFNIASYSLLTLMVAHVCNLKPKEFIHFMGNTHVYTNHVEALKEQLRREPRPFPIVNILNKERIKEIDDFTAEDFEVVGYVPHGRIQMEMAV
# assayNotes: Inhibition of Toxoplasma gondii thymidylate synthase at >[…] uM
Numeric answer only, unit % assumed.

Example cases with answers are listed next.
Short answer for CC(C)c1c(Sc2cccc3ccccc23)[nH]c2nc(N)nc(N)c12 : inhibition was 0

Lab note: measured inhibition of CCCc1c(Sc2ccc(OC)cc2)[nH]c2nc(N)nc(N)c12 was 12

The compound CCCc1c(Sc2cccc3ccccc23)[nH]c2nc(N)nc(N)c12 showed inhibition equal to 16

inhibition for CC(C)c1c(Sc2ccccc2)[nH]c2nc(N)nc(N)c12 is 0

For reference, reported inhibition for COc1ccc(OC)c(Sc2[nH]c3nc(N)nc(N)c3c2C(C)C)c1 stands at 0

Continue with the compound presented below.
The reported inhibition of the compound Cc1cccc(C)c1Sc1[nH]c2nc(N)nc(N)c2c1C(C)C was 0

====

Target sequence: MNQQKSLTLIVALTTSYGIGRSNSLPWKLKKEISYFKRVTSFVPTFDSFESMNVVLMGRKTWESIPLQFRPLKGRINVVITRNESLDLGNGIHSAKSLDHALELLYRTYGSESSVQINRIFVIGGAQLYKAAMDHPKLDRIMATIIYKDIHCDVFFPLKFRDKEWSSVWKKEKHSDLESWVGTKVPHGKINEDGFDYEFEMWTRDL
outcomeMeasure: pIC50
Worth noting: pIC50 values are minus log10 of concentrations stated in mol/L.

Below: 2 compounds and their reported pIC50.
Entry under test: CC(C)c1c(Sc2ccc3ccccc3c2)[nH]c2nc(N)nc(N)c12 . Its pIC50 was 5.15

The reported pIC50 of the compound CCCc1c(Sc2ccc(OC)cc2)[nH]c2nc(N)nc(N)c12 was 5.38

From here, focus on the item given below.
Reported pIC50 of COc1ccc(Sc2[nH]c3nc(N)nc(N)c3c2C(C)C)cc1OC : 4.55

====

# testedTarget: Bifunctional dihydrofolate reductase-thymidylate synthase (Toxoplasma gondii)
# assayNotes: Inhibition of Toxoplasma gondii dihydrofolate reductase
Recorded pIC50 for the following compounds
Quick note: pIC50 means taking -log10 of the concentration in moles per liter.

Worked examples, 3 compounds total:
The compound listed as CC(C)c1c(Sc2c(Cl)cccc2Cl)[nH]c2nc(N)nc(N)c12 shows pIC50 equal to 6.28

In plain terms, COc1ccc(Sc2[nH]c3nc(N)nc(N)c3c2C(C)C)cc1OC has a documented pIC50 of 5.57

Sample COc1ccc(OC)c(Sc2[nH]c3nc(N)nc(N)c3c2C(C)C)c1 ; pIC50 observed: 5.85

# context switch: different compound, same pIC50
compound CC(C)c1c(Sc2ccccc2)[nH]c2nc(N)nc(N)c12 , pIC50 observed: 7.19

====

# testedTarget: Bifunctional dihydrofolate reductase-thymidylate synthase (Toxoplasma gondii, UniProt Q07422)
# assayNotes: Inhibition of Toxoplasma gondii thymidylate synthase
In this section we review reported IC50 values for a set of compounds.

// solved cases for IC50 follow
CCCc1c(Sc2ccc(OC)c(OC)c2)[nH]c2nc(N)nc(N)c12 yielded IC50 of > 11000 nM

Given item CC(C)c1c(Sc2c(Cl)cccc2Cl)[nH]c2nc(N)nc(N)c12 , the value recorded as its IC50 is > 2200 nM

For record CCCc1c(Sc2ccccc2)[nH]c2nc(N)nc(N)c12 the listed IC50 is > 1400 nM

Sample CC(C)c1c(Sc2ccccc2)[nH]c2nc(N)nc(N)c12 ; IC50 observed: > 2700 nM

Next:
The measured IC50 associated with CCCc1c(Sc2ccc(OC)cc2)[nH]c2nc(N)nc(N)c12 reads > 13000 nM

The compound identified as Cc1cccc(C)c1Sc1[nH]c2nc(N)nc(N)c2c1C(C)C registered its IC50 at > 13000 nM

Summary for this compound, COc1ccc(OC)c(Sc2[nH]c3nc(N)nc(N)c3c2C(C)C)c1 : IC50 is > 2300 nM

Query CC(C)c1c(Sc2cccc3ccccc23)[nH]c2nc(N)nc(N)c12 yields IC50 of > 12000 nM

Short answer for COc1ccc(Sc2[nH]c3nc(N)nc(N)c3c2C(C)C)cc1 : IC50 was > 2500 nM

In plain terms, CC(C)c1c(Sc2ccc(Cl)c(Cl)c2)[nH]c2nc(N)nc(N)c12 has a documented IC50 of > 2300 nM

// IC50 lookup, compound = COc1ccc(Sc2[nH]c3nc(N)nc(N)c3c2C(C)C)cc1OC , result: > 2300 nM

Reported IC50 for CCCc1c(Sc2ccc3ccccc3c2)[nH]c2nc(N)nc(N)c12 was > 15000 nM

Given item CCCc1c(Sc2cccc3ccccc23)[nH]c2nc(N)nc(N)c12 , the value recorded as its IC50 is > 12000 nM

// field: IC50; key: CC(C)c1c(Sc2ccc3ccccc3c2)[nH]c2nc(N)nc(N)c12 ; value = > 2400 nM

====

Below are IC50 values recorded for Dihydrofolate reductase (Pneumocystis carinii).
Record the value in µM, omitting the unit from your answer.

Please review the entries below; each comes with its answer.
IC50 value, target or system Dihydrofolate reductase (Pneumocystis carinii), for CC(C)c1c(Sc2cccc3ccccc23)[nH]c2nc(N)nc(N)c12 : 0.68

The molecule CCCc1c(Sc2ccc(C(=O)N[C@@H](CCC(=O)O)C(=O)O)cc2)[nH]c2nc(N)nc(N)c12 , when measured on Dihydrofolate reductase (Pneumocystis carinii), yielded IC50 of 0.00311

Fill in: Dihydrofolate reductase (Pneumocystis carinii) IC50 for CC(C)c1c(Sc2ccccc2)[nH]c2nc(N)nc(N)c12 = 11.2

Others:
Hey, Dihydrofolate reductase (Pneumocystis carinii) data for CCCc1c(Sc2cccc3ccccc23)[nH]c2nc(N)nc(N)c12 : IC50 came out at 8.6

// molecule CCCc1c(Sc2cc(OC)ccc2OC)[nH]c2nc(N)nc(N)c12 , assay Dihydrofolate reductase (Pneumocystis carinii), IC50 value: 10.4

The observed IC50 for CCCc1c(Sc2c(Cl)cccc2Cl)[nH]c2nc(N)nc(N)c12 when tested with Dihydrofolate reductase (Pneumocystis carinii) stands at 5.35

Observed IC50, Dihydrofolate reductase (Pneumocystis carinii), CCCc1c(Sc2ccccc2)[nH]c2nc(N)nc(N)c12 : 4.21

# lookup: CCCc1c(Sc2ccc(OC)c(OC)c2)[nH]c2nc(N)nc(N)c12 on Dihydrofolate reductase (Pneumocystis carinii), IC50 = 8.45

Form field, IC50 with Dihydrofolate reductase (Pneumocystis carinii), item COc1ccc(OC)c(Sc2[nH]c3nc(N)nc(N)c3c2C(C)C)c1 : 35.6

# lookup: CCCc1c(Sc2c(C)cccc2C)[nH]c2nc(N)nc(N)c12 on Dihydrofolate reductase (Pneumocystis carinii), IC50 = 5.32

The measured IC50 that CC(C)c1c(Sc2ccc(Cl)c(Cl)c2)[nH]c2nc(N)nc(N)c12 showed for Dihydrofolate reductase (Pneumocystis carinii) is 10.9

====

As a worked illustration, we turn to log10 of IC50 data collected for Dihydrofolate reductase (Rattus norvegicus).
Transform log10 | Measure IC50 | Unit µM

Here's what some known entries look like.
The molecule identified as Cc1cccc(C)c1Sc1[nH]c2nc(N)nc(N)c2c1C(C)C registered its log10 of IC50 at 1.17

The molecule identified as CC(C)c1c(Sc2cccc3ccccc23)[nH]c2nc(N)nc(N)c12 registered its log10 of IC50 at -0.04

For reference, reported log10 of IC50 for COc1ccc(Sc2[nH]c3nc(N)nc(N)c3c2C(C)C)cc1 stands at 0.28

Recorded log10 of IC50 (molecule CC(C)c1c(Sc2ccc3ccccc3c2)[nH]c2nc(N)nc(N)c12 ): 0.32

GET /value?item= CCCc1c(Sc2cccc3ccccc23)[nH]c2nc(N)nc(N)c12 &field=log10 of IC50 returns 0.81

Read the next record carefully.
log10 of IC50 for COc1ccc(OC)c(Sc2[nH]c3nc(N)nc(N)c3c2C(C)C)c1 is 1.70
